tested-on: Factor X (FX), P00742
Sequence (P00742 whole entry, looked up): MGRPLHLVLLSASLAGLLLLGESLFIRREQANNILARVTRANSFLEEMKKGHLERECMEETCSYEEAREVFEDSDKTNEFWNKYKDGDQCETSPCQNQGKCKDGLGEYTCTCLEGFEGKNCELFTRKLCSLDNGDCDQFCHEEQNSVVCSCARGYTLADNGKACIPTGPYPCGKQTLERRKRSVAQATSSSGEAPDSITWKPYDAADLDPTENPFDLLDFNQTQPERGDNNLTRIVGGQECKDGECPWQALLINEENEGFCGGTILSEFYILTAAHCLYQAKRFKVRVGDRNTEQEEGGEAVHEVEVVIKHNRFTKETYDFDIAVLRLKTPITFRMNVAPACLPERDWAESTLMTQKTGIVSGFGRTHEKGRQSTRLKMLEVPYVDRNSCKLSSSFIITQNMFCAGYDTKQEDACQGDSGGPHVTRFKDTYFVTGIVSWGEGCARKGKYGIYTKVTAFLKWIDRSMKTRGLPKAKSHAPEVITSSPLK
Parameter: KM of FX activation by FIXa in the Xase complex (FVIIIa, PC/PS vesicles, Ca2+). Scope: all listed entries.
Lab book: enter the figure in µM, no units written.

Provide KM of FX activation by FIXa in the Xase complex (FVIIIa, PC/PS vesicles, Ca2+) value for the following protein: FIXa variant K228N/R318Y/E410N (mature FIX numbering) (protein) chain 1: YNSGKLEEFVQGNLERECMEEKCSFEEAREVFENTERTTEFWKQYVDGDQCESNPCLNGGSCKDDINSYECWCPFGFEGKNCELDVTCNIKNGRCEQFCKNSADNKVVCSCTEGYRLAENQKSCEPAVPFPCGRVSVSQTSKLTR chain 2: VVGGEDAKPGQFPWQVVLNGKVDAFCGGSIVNEKWIVTAAHCVETGVNITVVAGEHNIEETEHTEQKRNVIRIIPHHNYNAAINKYNHDIALLELDEPLVLNSYVTPICIADKEYTNIFLKFGSGYVSGWGRVFHKGYSALVLQYLRVPLVDRATCLRSTKFTIYNNMFCAGFHEGGRDSCQGDSGGPHVTEVEGTSFLTGIISWGEECAMKGKYGIYTKVSRYVNWIKNKTKLT
0.042

Provide KM of FX activation by FIXa in the Xase complex (FVIIIa, PC/PS vesicles, Ca2+) value for the following protein: FIXa variant Y155F/R318Y/R338E/R403E/E410N (mature FIX numbering) (protein) chain 1: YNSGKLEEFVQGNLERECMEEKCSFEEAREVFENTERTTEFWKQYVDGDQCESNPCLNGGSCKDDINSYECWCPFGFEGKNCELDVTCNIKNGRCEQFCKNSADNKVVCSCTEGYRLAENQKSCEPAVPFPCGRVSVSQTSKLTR chain 2: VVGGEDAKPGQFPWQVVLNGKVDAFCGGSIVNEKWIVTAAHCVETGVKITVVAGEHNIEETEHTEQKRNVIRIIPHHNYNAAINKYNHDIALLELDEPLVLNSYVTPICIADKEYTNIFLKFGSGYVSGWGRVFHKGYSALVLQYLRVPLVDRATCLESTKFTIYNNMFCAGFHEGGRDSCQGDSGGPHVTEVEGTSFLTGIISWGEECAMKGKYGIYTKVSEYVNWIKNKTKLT
0.0304

Provide KM of FX activation by FIXa in the Xase complex (FVIIIa, PC/PS vesicles, Ca2+) value for the following protein: FIXa variant D104N/K106S/R318Y/R338E/E410N (mature FIX numbering) (protein) chain 1: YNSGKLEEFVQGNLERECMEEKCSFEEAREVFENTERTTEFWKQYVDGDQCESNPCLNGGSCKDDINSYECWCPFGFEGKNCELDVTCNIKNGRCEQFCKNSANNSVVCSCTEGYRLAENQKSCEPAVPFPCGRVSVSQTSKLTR chain 2: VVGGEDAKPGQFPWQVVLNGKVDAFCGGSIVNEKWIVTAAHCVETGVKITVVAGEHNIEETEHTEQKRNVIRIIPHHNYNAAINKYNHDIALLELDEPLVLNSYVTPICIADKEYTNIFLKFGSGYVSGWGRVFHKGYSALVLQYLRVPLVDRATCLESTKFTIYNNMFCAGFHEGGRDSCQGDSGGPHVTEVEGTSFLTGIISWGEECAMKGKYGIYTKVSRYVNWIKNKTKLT
0.0189
